Test system: S. aureus DSM 20231;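 further: first quartile when negative (synergy) and third quartile when positive (antagonism)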
Experiment: Bliss interaction score (quartile over a dose matrix) (fitness difference); higher = more antagonism (negative = synergy)
For each entry below, report its Bliss interaction score value.
One number for each entry.

Some solved entries appear below for comparison.
- Compound: "Cn1nnc(-c2ccc(-c3ccc(N4C[C@H](CO)OC4=O)cc3F)cn2)n1 [Tedizolid] + COc1cc(Cc2cnc(N)nc2N)cc(OC)c1OC [Trimethoprim]"
  Bliss interaction score: 0.215
- Compound: "CC1(C)S[C@@H]2[C@H](NC(=O)[C@H](N)c3ccc(O)cc3)C(=O)N2[C@H]1C(=O)O [Amoxicillin] + CC(=O)Oc1cccc2c1C(=O)c1c(OC(C)=O)cc(C(=O)O)cc1C2=O [Diacerein]"
  Bliss interaction score: -0.192

For every item below, please supply its Bliss interaction score.
1. CO/N=C(\C(=O)N[C@@H]1C(=O)N2C(C(=O)[O-])=C(C[N+]3(C)CCCC3)CS[C@H]12)c1csc(N)n1 [Cefepime] + Cn1nnc(-c2ccc(-c3ccc(N4C[C@H](CO)OC4=O)cc3F)cn2)n1 [Tedizolid]
2. CN(C)C(=O)C(CCN1CCC(O)(c2ccc(Cl)cc2)CC1)(c1ccccc1)c1ccccc1 [Loperamide] + C[n+]1ccc(-c2cc[n+](C)cc2)cc1 [Paraquat]
3. CCCCCCCCCC(=O)N[C@@H](Cc1c[nH]c2ccccc12)C(=O)N[C@H](CC(N)=O)C(=O)N[C@@H](CC(=O)O)C(=O)N[C@@H]1C(=O)NCC(=O)N[C@@H](CCCN)C(=O)N[C@@H](CC(=O)O)C(=O)N[C@H](C)C(=O)N[C@@H](CC(=O)O)C(=O)NCC(=O)N[C@H](CO)C(=O)N[C@@H]([C@H](C)CC(=O)O)C(=O)N[C@@H](CC(=O)c2ccccc2N)C(=O)O[C@@H]1C [Daptomycin] + C[C@@H]1O[C@@H]1P(=O)(O)O [Fosfomycin]
4. CN(C)C(=O)C(CCN1CCC(O)(c2ccc(Cl)cc2)CC1)(c1ccccc1)c1ccccc1 [Loperamide] + CC1=C\[C@@H](O)CC(=O)Cc2nc(co2)C(=O)N2CCC=C2C(=O)O[C@H](C(C)C)[C@H](C)/C=C/C(=O)NC\C=C\1 [Virginiamycin M1]
5. CC1(C)S[C@@H]2[C@H](NC(=O)[C@H](N)c3ccc(O)cc3)C(=O)N2[C@H]1C(=O)O [Amoxicillin] + CC[C@H]1OC(=O)[C@H](C)[C@@H](O[C@H]2C[C@@](C)(OC)[C@@H](O)[C@H](C)O2)[C@H](C)[C@@H](O[C@@H]2O[C@H](C)C[C@H](N(C)C)[C@H]2O)[C@](C)(OC)C[C@@H](C)C(=O)[C@H](C)[C@@H](O)[C@]1(C)O [Clarithromycin]
6. CC1(C)S[C@@H]2[C@H](NC(=O)[C@H](N)c3ccc(O)cc3)C(=O)N2[C@H]1C(=O)O [Amoxicillin] + O=C1CN(/N=C/c2ccc([N+](=O)[O-])o2)C(=O)N1 [Nitrofurantoin]
7. CO/N=C(\C(=O)N[C@@H]1C(=O)N2C(C(=O)[O-])=C(C[N+]3(C)CCCC3)CS[C@H]12)c1csc(N)n1 [Cefepime] + O=C(O)c1cn(C2CC2)c2cc(N3CCNCC3)c(F)cc2c1=O [Ciprofloxacin]
8. C[C@H]1COc2c(N3CCN(C)CC3)c(F)cc3c(=O)c(C(=O)O)cn1c23 [Levofloxacin] + CN(N=O)C(=O)N[C@@H](C=O)[C@@H](O)[C@H](O)[C@H](O)CO [Streptozotocin]

Result ::
1. 0.122
2. 0.177
3. -0.0509
4. -0.211
5. -0.0818
6. -0.0521
7. -0.0463
8. -0.0228
